Molecular target: Torsin-1A-interacting protein 1 (Homo sapiens) (UniProt Q5JTV8)
Sequence (Q5JTV8 whole entry, looked up): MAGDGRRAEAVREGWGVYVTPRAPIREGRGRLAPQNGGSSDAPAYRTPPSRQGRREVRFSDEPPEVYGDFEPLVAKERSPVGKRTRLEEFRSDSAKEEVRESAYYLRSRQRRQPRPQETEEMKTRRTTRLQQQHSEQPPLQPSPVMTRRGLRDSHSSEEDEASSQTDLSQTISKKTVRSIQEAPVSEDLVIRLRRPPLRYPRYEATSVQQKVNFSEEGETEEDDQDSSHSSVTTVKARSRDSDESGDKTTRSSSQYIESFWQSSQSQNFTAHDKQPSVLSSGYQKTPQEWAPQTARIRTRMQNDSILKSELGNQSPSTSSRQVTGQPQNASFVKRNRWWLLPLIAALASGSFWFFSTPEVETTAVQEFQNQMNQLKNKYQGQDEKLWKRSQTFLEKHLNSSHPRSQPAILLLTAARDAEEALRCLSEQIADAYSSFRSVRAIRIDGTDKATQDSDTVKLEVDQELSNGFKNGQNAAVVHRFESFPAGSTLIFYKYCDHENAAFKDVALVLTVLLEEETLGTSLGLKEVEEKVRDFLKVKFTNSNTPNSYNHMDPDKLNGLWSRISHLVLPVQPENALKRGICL
Experiment: compound microarray binding of lysate hLAP1 – cell lysate, small-molecule microarray, COS7 lysate, 635/667 nm fluorescence, primary screen (AID 1116)
Details: 635 nm fluorescence, higher = more signal
observation type: composite z-score
Hey, just send me the number, nothing else.

Quick one: composite z-score for C=CCC(OC(C)=O)[C@@H]1[C@@H](N(Cc2ccc(-c3cccc(C(F)(F)F)c3)o2)C(=O)c2ccc(-c3ccccc3)cc2)c2cc(OCCCO)ccc2N1C(=O)c1ccc2ccccc2c1 (stereo not given in full) ? 0.33

Quick one: composite z-score for `O=C1[C@H]2C=C(I)[C@H](C[C@@H]2OCCCCCCO)[C@@]12CO2` ? -0.144

Quick one: composite z-score for `CC(C)C[C@@H]1NC(=O)[C@@H]2C[C@H](C(=O)NCCCCCCNC(=O)CS)[C@H](c3cccc(OCCO)c3)N2C1=O` ? 1.06

Quick one: composite z-score for `CN(C)CCCC[C@@H]1NC(=O)[C@@H]2C[C@H](C(=O)NCCCCCCNC(=O)CS)[C@H](c3ccc(O)cc3)N2C1=O` ? 0.464

Quick one: composite z-score for `Cc1ccc(S[C@]2(C(=O)NC(C)C)CC(=O)N(C3CCCCC3)[C@@H]2c2ccc(CO)cc2I)cc1` ? 0.208

Quick one: composite z-score for `COc1ccc([Si](C)(C)[C@H]2[C@H](CC(=O)N3Cc4ccccc4C[C@H]3CO)O[C@@]3(C(=O)N(C)c4ccccc43)[C@@H]2C)cc1` ? 0.712

Quick one: composite z-score for `C[N+](C)(C)CCCC[C@@H]1NC(=O)[C@@H]2C[C@H](C(=O)NCc3ccc(F)cc3)[C@H](c3ccc(O)cc3)N2C1=O` ? 2.44

Quick one: composite z-score for `N#Cc1ccc(-c2cccc(=O)o2)cc1` ? -0.102

Quick one: composite z-score for O=C1C2C=CC(C(O)c3cccs3)N(Nc3ccc([N+](=O)[O-])cc3)C2C(=O)N1c1ccccc1 (stereo not given) ? 1.01

Quick one: composite z-score for `O=C1N(Cc2ccccc2)c2ccccc2C[C@@]12COC(c1ccc(OCCCO)cc1)=N2` ? 1.58

Quick one: composite z-score for COc1cc(OC)c(C(O)C2C=CC3C(=O)N(c4ccccc4)C(=O)C3N2Nc2ccc(C(C)C)cc2)cc1Br (stereo not given) ? 0.695

Quick one: composite z-score for `COC(=O)[C@@]1(Cc2ccc(F)cc2)[C@H]2c3cc(C(=O)N4CCCC4)n(Cc4cc(F)cc5c4OCOC5)c3C[C@H]2CN1C(=O)c1ccccc1` ? -0.415

Quick one: composite z-score for C=C(C)[C@@H]1CC=C(C(O)C2C=CC3C(=O)N(C)C(=O)C3N2Nc2ccc([N+](=O)[O-])cc2[N+](=O)[O-])CC1 (stereo not given in full) ? 0.958

Quick one: composite z-score for `O=C1C[C@@](C(=O)O)(c2ccc([N+](=O)[O-])cc2)[C@@H](c2ccc(CO)cc2)N1C1CCCCC1` ? 0.493

Quick one: composite z-score for `CN(C)CCCC[C@@H]1NC(=O)[C@H]2C[C@@H](C(=O)O)[C@@H](c3ccc(O)cc3)N2C1=O` ? 4.54

Quick one: composite z-score for `CC(C)[Si](C#CCCc1ccccc1)(O[C@H](c1ccccc1)c1cn(Cc2ccccc2)nn1)C(C)C` ? 0.427

Quick one: composite z-score for CC(C)C[C@H]1NC(=O)C([C@@H](C)OCc2ccccc2)NC(=O)[C@@]23C(=O)N[C@@H](Cc4ccccc4)C2[C@H](C)[C@@]2(C)O[C@H]2C3/C=C/C/C=C\CNC1=O (stereo not given in full) ? 0.174

Quick one: composite z-score for CCOC(=O)C1=CCC(c2cc3ccccc3[nH]2)N(CCN2CC(C(=O)OCC)=CCC2c2cc3ccccc3[nH]2)C1 (stereo not given) ? 0.0389

Quick one: composite z-score for `C=C(CCCC)/C(=C/C[C@H](OC(=O)c1ccncc1)c1cccc(OCCO)c1)c1cnc2ccccc2c1` ? -0.064

Quick one: composite z-score for `C=CCOC(=O)[C@@H]1[C@H]2C(=O)O[C@H](c3ccccc3)[C@H](c3ccccc3)N2[C@H](c2ccc(OCCOC(=O)[C@H]3C[C@H]4C(=O)N[C@@H](CCCCN(C)C)C(=O)N4[C@H]3c3ccc(O)cc3)cc2)[C@@]12C(=O)Nc1ccc(I)cc12` ? 1.31

Quick one: composite z-score for `CCCC[C@H]1OB(O)C[C@H]2C1=C(COc1ccccc1)C[C@H]1C(=O)C=CC(=O)[C@H]12` ? 0.0135

Quick one: composite z-score for `CCCCC(=C=CC[C@H](O)c1ccc(CO)o1)CCO` ? 0.906

Quick one: composite z-score for `C=C(CCCC)/C(=C/C[C@H](OC(=O)c1ccncc1)c1ccccc1OCCO)c1cc(C(=O)OC)ccc1OC` ? 0.869

Quick one: composite z-score for `COC(=O)[C@@]1(Cc2ccc(F)cc2)[C@H]2c3cc(C(=O)N(C)C)n(C)c3C[C@H]2CN1C(=O)c1ccccc1` ? 0.509

Quick one: composite z-score for `CN(C)CCCNC(=O)[C@@]1(Cc2ccccc2I)c2ccccc2C(=O)N(C2CCCCC2)[C@H]1c1ccc(CO)cc1` ? 1.02

Quick one: composite z-score for `O=C(NCc1ccc(F)cc1)[C@H]1C[C@H]2C(=O)N3CCC[C@H]3C(=O)N2[C@H]1c1ccc(O)cc1` ? 0.424

Quick one: composite z-score for CC(C)(C)N1CC=CC23O[C@@H]4/C=C\CCCOC(=O)C4[C@H]2C(=O)N(CCCO)[C@@H]3C1=O (stereo not given in full) ? -1.37

Quick one: composite z-score for `CCOC(=O)c1cn(C[C@H](Cc2ccccc2)NC(=O)N[C@H](CO)CCc2oc(C(C)=O)c(C(=O)OC)c2C(=O)OC)nn1` ? 0.866

Quick one: composite z-score for `COc1ccc([Si](C)(C)[C@H]2[C@H](CCO)O[C@@]3(C(=O)N(Cc4cccc(N5C(=O)c6ccccc6Oc6ccccc65)c4)c4ccccc43)[C@@H]2C)cc1` ? 0.449

Quick one: composite z-score for `O=C1O[C@H](c2ccccc2)[C@H](c2ccccc2)N2[C@H]1[C@@H](C(=O)N1CCN(c3ncccn3)CC1)[C@]1(C(=O)Nc3ccc(C#CCCO)cc31)[C@H]2c1ccc(O)cc1` ? 0.516

----------
Assay: optical density change of DRC41 E. coli – strain DRC41, OD650, 24 h, E. coli filamentation project, primary screen (AID 1093);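 further: MC1000 strain lacking acrAB efflux and sulA so SOS filamentation is blocked; test concentration not given here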
Conditions: E. coli DRC41 growth, higher = more signal, called active from +8 up or from −8 down
Calls of active or inactive are those of the source.
I'd be grateful if you could share measured z-score for these entries.

Quick one: z-score for [N-]=[N+]=NCc1ccccc1[C@@H]1OC(c2ccc(OCCCO)cc2)=N[C@]1(Cc1ccccc1N=[N+]=[N-])C(=O)NCC(O)CO (some centres not stated) ? 0.712 (inactive)

Quick one: z-score for CN1C(=O)C2C(C3CC3)C=C3CN(Cc4cccc(Cl)c4)[C@@H]([C@@H](O)Cc4ccccc4)C3C2C1=O (some centres not stated) ? 1.71 (inactive)

Quick one: z-score for C=CCC(OC(C)=O)[C@@H]1[C@@H](N(Cc2cccc3ccccc23)C(=O)c2ccc(-c3ccccc3)cc2)c2cc(OCCCO)ccc2N1C(=O)Cc1ccc2ccccc2c1 (some centres not stated) ? -0.741 (inactive)

Quick one: z-score for CC(C)(C)N1CC=CC23O[C@@H]4C=CCOC(=O)[C@@H]4[C@H]2C(=O)N(CCO)[C@@H]3C1=O (some centres not stated) ? -0.594 (inactive)

Quick one: z-score for `O=C1[C@H]2C=C(I)[C@H](C[C@@H]2OCCCCCCO)[C@@]12CO2` ? -1.05 (inactive)

Quick one: z-score for `CN(C)CCCCNC(=O)[C@H]1C[C@H]2C(=O)NCC(=O)N2[C@H]1c1ccc(O)cc1` ? 0.187 (inactive)

Quick one: z-score for `COC(=O)[C@@]1(Cc2ccc(F)cc2)[C@H]2c3cc(C(=O)N4CCCC4)n(CCc4ccccn4)c3C[C@H]2CN1C(=O)c1ccccc1` ? -0.223 (inactive)

----------
Experiment: probe aLefty1 binding on compound microarray – biochemical, small-molecule microarray, 635/667 nm fluorescence, primary screen (AID 1153);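 further: score merges spot fluorescence with signal-to-noise ratio from the scanned slide images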
Details: higher = more signal
Labels assigned by composite z-score range: low class = under -0.04, middle class = from -0.04 up to 0.1, high class = 0.1 and over

Which class is correct for the following compound? `COCCCNC(=O)[C@@H]1c2ccccc2C(=O)N(Cc2ccc(OC(F)(F)F)cc2)[C@H]1c1ccc(CO)cc1` middle class

Which class is correct for the following compound? `CC[C@@H]1C=C(C(=O)O)[C@H](c2ccc(OC)cc2)N1S(=O)(=O)c1ccc(C)cc1` low class

Which class is correct for the following compound? `COCC(=C=CC[C@H](O)c1ccccc1OCCO)C[C@H](O)COCc1ccccc1` high class

Which class is correct for the following compound? `C=CCOC(=O)[C@@H]1[C@H]2C(=O)O[C@H](c3ccccc3)[C@H](c3ccccc3)N2[C@H](c2ccc(OCCOC(=O)[C@H]3C[C@H]4C(=O)NCC(=O)N4[C@H]3c3cccc(OCCO)c3)cc2)[C@@]12C(=O)Nc1ccc(I)cc12` high class

Which class is correct for the following compound? `C[C@@H]1ON(c2ccc(I)cc2)[C@H](c2cccc(NC(=O)OCC3c4ccccc4-c4ccccc43)c2)[C@H]1C(=O)N1C(=O)OC[C@H]1Cc1ccccc1` high class

Which class is correct for the following compound? `CN(C)CCCNC(=O)[C@@]1(C)c2ccccc2C(=O)N(Cc2ccc(OC(F)(F)F)cc2)[C@H]1c1ccc(CO)cc1` low class

Which class is correct for the following compound? `Cc1ccc(S[C@]2(C(=O)NCCCN(C)C)CC(=O)N(Cc3ccccc3C(F)(F)F)[C@@H]2c2ccc(CO)cc2I)cc1` low class

Which class is correct for the following compound? `CCOC(=O)C[C@H]1[C@H](OC(=O)c2ccccc2-c2ccccc2)[C@@H](NC(=O)C2CCCCC2)c2cc(OCCCO)ccc2N1C(=O)c1ccc2ccccc2n1` low class

Which class is correct for the following compound? CC(C)(C)N1CC=CC23O[C@@H]4C=CCOC(=O)[C@@H]4[C@H]2C(=O)N(CCO)[C@@H]3C1=O (some centres undefined) low class

Which class is correct for the following compound? CCCCCC1=C2CNC(Cc3ccccc3)(C(=O)OC)C=C2C(C)C1=O (centres undefined) high class

Which class is correct for the following compound? C=CCC(OC(C)=O)[C@@H]1[C@@H](N(Cc2ccc(-c3ccccc3)cc2)C(=O)c2cccc3ccccc23)c2cc(OCCCO)ccc2N1C(=O)Cc1ccc(OC)cc1 (some centres undefined) high class

Which class is correct for the following compound? `O=C(NCc1ccccc1)[C@@H]1c2ccccc2C(=O)N(Cc2cc(C(F)(F)F)cc(C(F)(F)F)c2)[C@H]1c1ccc(CO)cc1` middle class

Which class is correct for the following compound? C=CCC(OC(C)=O)[C@@H]1[C@@H](N(Cc2ccc(-c3cccc(C(F)(F)F)c3)o2)C(=O)c2ccc(-c3ccccc3)cc2)c2cc(OCCCO)ccc2N1C(=O)c1ccc2ccccc2c1 (some centres undefined) middle class

Which class is correct for the following compound? `CO[C@H]1O[C@H](CO)[C@@H](OC(=O)Nc2ccccc2-c2ccccc2)[C@H](OC(=O)Nc2ccccc2)[C@H]1OC(=O)Nc1ccccc1` middle class
